Assay: Solubility, automated shake flask method with UV quantitation
Type: physicochemical
Conditions: aqueous buffer, thermodynamic from solid; McIlvaine buffer pH 7.4, 4 h, room temperature
OBSERVATION_TYPE: solubility at 4 h

Asked: Fill in the blank: the reported solubility at 4 h of CO[C@H]1COCC[C@H]1NC1CCN(C(=O)c2ncnc(NC[C@H]3CCC[C@@H](c4ccc(C)cc4)O3)c2C)CC1.O=C(O)CC(O)(CC(=O)O)C(=O)O [citrate salt 1] is ____.
Given back: > 1000 µg/mL

----------
Experiment: Solubility, automated shake flask method with UV quantitation
Format: physicochemical
Conditions: aqueous buffer, thermodynamic from solid; 0.1N NaOH, 2 h, room temperature
OBSERVATION_TYPE: solubility at 2 h

Asked: Fill blank: measured solubility at 2 h of the compound CO[C@H]1COCC[C@H]1NC1CCN(C(=O)c2ncnc(NC[C@H]3CCC[C@@H](c4ccc(C)cc4)O3)c2C)CC1.O=C(O)CC(O)(CC(=O)O)C(=O)O [citrate salt 1] is ____.
Given back: > 1000 µg/mL

----------
Assay: In vitro metabolic stability in hepatocyte incubations, minipig
Type: in vitro ADME
Details: hepatocytes (suspension); Minipig; predicted from hepatocyte CL intrinsic, well stirred model
OBSERVATION_TYPE: predicted in vivo clearance at 1 μM (mL/min/kg)
One number for each entry, in mL/min/kg.

Asked: I'd like to know its predicted in vivo clearance at 1 μM. The molecule in question is CO[C@H]1COCC[C@H]1NC1CCN(C(=O)c2ncnc(NC[C@H]3CCC[C@@H](c4ccc(C)cc4)O3)c2C)CC1
Given back: 6.8

----------
Test: Intravenous pharmacokinetics in minipig
Format: in vivo, Göttingen Minipigs
Conditions: both sexes, Göttingen, plasma, 5 umol/kg, IV dose 5 μmol/kg, mean values, read-out: Vss
OBSERVATION_TYPE: Vd (L/kg)
Numbers only, in L/kg.

Asked: May I ask what Vd has been recorded for CO[C@H]1COCC[C@H]1NC1CCN(C(=O)c2ncnc(NC[C@H]3CCC[C@@H](c4ccc(C)cc4)O3)c2C)CC1 ?
Given back: 5.07

----------
Test: Solubility, automated shake flask method with UV quantitation
Type: physicochemical
Conditions: aqueous buffer, thermodynamic from solid; 0.1N NaOH, 6 h, room temperature
OBSERVATION_TYPE: solubility at 6 h

Asked: Report solubility at 6 h for CO[C@H]1COCC[C@H]1NC1CCN(C(=O)c2ncnc(NC[C@H]3CCC[C@@H](c4ccc(C)cc4)O3)c2C)CC1.O=C(O)CC(O)(CC(=O)O)C(=O)O [citrate salt 1] please.
Given back: > 1000 µg/mL

----------
Answer each item with its documented hygroscopic behavior: uptake of water.
Experiment: Dynamic vapour sorption (sorption isotherms, water uptake)
Format: physicochemical
Settings: up to 90% r.h., 25° C.
One number for each entry, in %.

1) Br.CO[C@H]1COCC[C@H]1NC1CCN(C(=O)c2ncnc(NC[C@H]3CCC[C@@H](c4ccc(C)cc4)O3)c2C)CC1 [hydrobromide salt of compound I]
20

// below: hygroscopic behavior: uptake of water requested for another molecule
Asked: If you can, please state the reported hygroscopic behavior: uptake of water value of CO[C@H]1COCC[C@H]1NC1CCN(C(=O)c2ncnc(NC[C@H]3CCC[C@@H](c4ccc(C)cc4)O3)c2C)CC1.CS(=O)(=O)O [methanesulfonate salt of compound I] .
Given back: 45

----------
Experiment: In vitro metabolic stability in hepatocyte incubations, human
Format: in vitro ADME
Details: hepatocytes (suspension); Human; predicted from hepatocyte CL intrinsic, well stirred model; read-out: CL, in vivo
OBSERVATION_TYPE: CLhep predicted at 1 μM

Asked: May I ask what CLhep predicted at 1 μM has been recorded for CO[C@H]1COCC[C@H]1NC1CCN(C(=O)c2ncnc(NC[C@H]3CCC[C@@H](c4ccc(C)cc4)O3)c2C)CC1 ?
Given back: 7.9 mL/min/kg

----------
Assay: Oral pharmacokinetics in dog
Assay type: in vivo, beagle dogs
Details: male, beagle, plasma, 5 umol/kg, oral dose 5 μmol/kg, mean values
OBSERVATION_TYPE: Cmax
Returns: string containing the numeric result and its unit.

Asked: Would you mind telling me what Cmax value was observed for CO[C@H]1COCC[C@H]1NC1CCN(C(=O)c2ncnc(NC[C@H]3CCC[C@@H](c4ccc(C)cc4)O3)c2C)CC1 ?
Given back: 317 nM

----------
Test: Solubility, automated shake flask method with UV quantitation
Type: physicochemical
Conditions: thermodynamic from solid; Water, 2 h, room temperature
OBSERVATION_TYPE: solubility at 2 h

Asked: Could you tell me which solubility at 2 h is on file for CO[C@H]1COCC[C@H]1NC1CCN(C(=O)c2ncnc(NC[C@H]3CCC[C@@H](c4ccc(C)cc4)O3)c2C)CC1.O=C(O)CC(O)(CC(=O)O)C(=O)O [citrate salt 1] ?
Given back: > 1000 µg/mL

----------
Assay: Solubility, automated shake flask method with UV quantitation
Assay type: physicochemical
Conditions: aqueous buffer, thermodynamic from solid; McIlvaine buffer pH 5.0, 4 h, room temperature
Method: Solubility was determined using an automated shake flask method (at room temperature) and quantitation of the dissolved drug substance was determined by UV-spectroscopy within this automated setup.
OBSERVATION_TYPE: solubility at 4 h

Asked: Look up solubility at 4 h: CO[C@H]1COCC[C@H]1NC1CCN(C(=O)c2ncnc(NC[C@H]3CCC[C@@H](c4ccc(C)cc4)O3)c2C)CC1.O=C(O)CC(O)(CC(=O)O)C(=O)O [citrate salt 1]
Given back: > 1000 µg/mL

----------
Test: Intravenous pharmacokinetics in minipig
Format: in vivo, Göttingen Minipigs
Conditions: both sexes, Göttingen, plasma, 5 umol/kg, IV dose 5 μmol/kg, mean values
OBSERVATION_TYPE: AUC(0-inf) (µM·h)
Answers are plain numbers, in µM·h.

Asked: # AUC(0-inf) lookup, item CO[C@H]1COCC[C@H]1NC1CCN(C(=O)c2ncnc(NC[C@H]3CCC[C@@H](c4ccc(C)cc4)O3)c2C)CC1 [compound I]
Given back: 4.31

----------
Experiment: Solubility, automated shake flask method with UV quantitation
Type: physicochemical
Conditions: Sörensen buffer, aqueous buffer, thermodynamic from solid; Sörensen pH 10, 6 h, room temperature
OBSERVATION_TYPE: solubility at 6 h

Asked: For the compound shown here, CO[C@H]1COCC[C@H]1NC1CCN(C(=O)c2ncnc(NC[C@H]3CCC[C@@H](c4ccc(C)cc4)O3)c2C)CC1.O=C(O)CC(O)(CC(=O)O)C(=O)O [citrate salt 1] , give the reported solubility at 6 h.
Given back: > 1000 µg/mL

----------
Molecular target: hERG (Homo sapiens)
Construct: expressed in transfected cells
Sequence (Q12809 whole entry): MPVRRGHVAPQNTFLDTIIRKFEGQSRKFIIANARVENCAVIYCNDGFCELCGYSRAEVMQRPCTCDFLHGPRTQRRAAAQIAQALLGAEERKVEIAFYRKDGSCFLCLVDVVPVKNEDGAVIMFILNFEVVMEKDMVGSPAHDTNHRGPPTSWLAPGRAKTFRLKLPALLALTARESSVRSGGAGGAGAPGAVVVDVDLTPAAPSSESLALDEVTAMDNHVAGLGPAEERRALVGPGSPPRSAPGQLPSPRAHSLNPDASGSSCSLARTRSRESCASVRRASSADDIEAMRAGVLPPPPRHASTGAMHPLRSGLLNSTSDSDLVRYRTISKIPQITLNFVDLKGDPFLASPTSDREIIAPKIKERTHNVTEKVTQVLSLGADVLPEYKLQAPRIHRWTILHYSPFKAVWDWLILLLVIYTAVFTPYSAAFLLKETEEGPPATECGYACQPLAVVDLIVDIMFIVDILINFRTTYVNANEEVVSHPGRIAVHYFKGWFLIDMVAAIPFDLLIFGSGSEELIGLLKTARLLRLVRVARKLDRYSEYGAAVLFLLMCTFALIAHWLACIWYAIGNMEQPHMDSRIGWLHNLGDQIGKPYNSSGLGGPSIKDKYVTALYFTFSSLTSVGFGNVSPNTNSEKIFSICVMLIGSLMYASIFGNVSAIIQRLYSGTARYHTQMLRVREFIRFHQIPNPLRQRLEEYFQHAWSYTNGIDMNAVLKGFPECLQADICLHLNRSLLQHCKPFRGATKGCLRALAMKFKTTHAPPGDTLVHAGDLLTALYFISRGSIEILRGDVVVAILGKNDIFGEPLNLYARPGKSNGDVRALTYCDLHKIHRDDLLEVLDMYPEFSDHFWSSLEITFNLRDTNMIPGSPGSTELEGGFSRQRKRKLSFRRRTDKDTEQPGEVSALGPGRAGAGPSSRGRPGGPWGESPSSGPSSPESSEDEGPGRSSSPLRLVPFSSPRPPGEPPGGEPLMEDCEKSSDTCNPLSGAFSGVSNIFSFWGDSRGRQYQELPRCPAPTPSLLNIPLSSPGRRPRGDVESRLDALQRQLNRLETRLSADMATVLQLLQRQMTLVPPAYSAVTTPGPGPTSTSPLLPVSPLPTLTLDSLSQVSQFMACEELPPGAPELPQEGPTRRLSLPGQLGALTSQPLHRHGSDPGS
Test: hERG-channel assay (whole-cell patch clamp, HEK293 cells transfected with hERG cDNA)
Type: cell-based
Settings: human, HEK293 cells stably transfected with hERG cDNA, pH 7.4; at 30 μM; read-out: inhibition of hERG-mediated potassium current
OBSERVATION_TYPE: inhibition at 30 µM (%)
Numbers only, in %.

Asked: What value of measured inhibition at 30 µM is listed for CO[C@H]1COCC[C@H]1NC1CCN(C(=O)c2ncnc(NC[C@H]3CCC[C@@H](c4ccc(C)cc4)O3)c2C)CC1 ?
Given back: 28

----------
Experiment: In vitro metabolic stability in hepatocyte incubations, dog
Type: in vitro ADME
Details: hepatocytes (suspension); Dog; predicted from hepatocyte CL intrinsic, well stirred model; read-out: CL, in vivo
OBSERVATION_TYPE: CLhep predicted at 1 μM (mL/min/kg)
Answers are plain numbers, in mL/min/kg.

Asked: What value of CLhep predicted at 1 μM has been reported for the following compound? CO[C@H]1COCC[C@H]1NC1CCN(C(=O)c2ncnc(NC[C@H]3CCC[C@@H](c4ccc(C)cc4)O3)c2C)CC1
Given back: 14

----------
Assay: ThermoGravimetry (loss on drying)
Assay type: physicochemical
Conditions: TG
Exercise: for every item that follows, state its recorded loss on drying.
Numbers only, in %.

Some solved cases for reference:
1. Br.CO[C@H]1COCC[C@H]1NC1CCN(C(=O)c2ncnc(NC[C@H]3CCC[C@@H](c4ccc(C)cc4)O3)c2C)CC1 [hydrobromide salt of compound I]
2.9
2. CO[C@H]1COCC[C@H]1NC1CCN(C(=O)c2ncnc(NC[C@H]3CCC[C@@H](c4ccc(C)cc4)O3)c2C)CC1.O=C(O)CC(O)(CC(=O)O)C(=O)O [citrate salt 1]
1.6

Count: 2. Required value per item: loss on drying.
1. CO[C@H]1COCC[C@H]1NC1CCN(C(=O)c2ncnc(NC[C@H]3CCC[C@@H](c4ccc(C)cc4)O3)c2C)CC1.Cl [hydrochloride salt of compound I]
2. CCS(=O)(=O)O.CO[C@H]1COCC[C@H]1NC1CCN(C(=O)c2ncnc(NC[C@H]3CCC[C@@H](c4ccc(C)cc4)O3)c2C)CC1 [esilate salt of compound I]

Given back:
1: 2.8; 2: 2.4

----------
Experiment: Oral pharmacokinetics in rat
Format: in vivo, Wistar(Han) rats
Details: male, Wistar(Han), plasma, 20 umol/kg, oral dose 20 μmol/kg of citrate salt 1, mean values
OBSERVATION_TYPE: Tmax (h)
Answers are plain numbers, in h.

Asked: What measured Tmax goes with CO[C@H]1COCC[C@H]1NC1CCN(C(=O)c2ncnc(NC[C@H]3CCC[C@@H](c4ccc(C)cc4)O3)c2C)CC1.O=C(O)CC(O)(CC(=O)O)C(=O)O [citrate salt 1] ?
Given back: 1.08
